- target desc: Kir1.1 (ROMK1) (Homo sapiens (Human))
- assay remarks: Electrophysiology Assay (whole cell voltage clamp, IonWorks Quattro)
- test settings: Chinese hamster ovary cells stably expressing Kir1.1; block during voltage step to 0 mV
property label: IC50 (nM)
Give just the numeric value; nM need not be written.

Summary for this compound, N#Cc1c(F)ccc([C@H]2CN3CCN(C(=O)C4CCc5nc(-n6cnnn6)ncc54)C[C@@H]3CO2)c1Cl (stereo partly shown) : IC50 is 80

Entry under test: Cc1c([C@H]2CN3CCN(C(=O)C4CCc5nc(-n6cnnn6)ccc54)C[C@@H]3CO2)ccc(F)c1C#N (stereo partly shown) . Its IC50 was 160

Measured IC50, COc1cc([C@@H]2CN3CCN(C(=O)C4CCc5nc(-n6cnnn6)ccc54)C[C@@H]3CO2)ccc1C#N (stereo partly shown) : 270

// sample Cc1c([C@H]2CN3CCN(C(=O)[C@@H]4CCc5nc(-n6cnnn6)ncc54)C[C@@H]3CO2)ccc(F)c1C#N , its IC50 was 100

Looking up N#Cc1c(F)ccc([C@H]2CN3CCN(C(=O)C4CCc5nc(-n6cnnn6)ccc54)C[C@@H]3CO2)c1F (stereo partly shown) , I see its IC50 listed as 80

Lookup result for Cc1c([C@@H]2CN3CCN(C(=O)C4CCc5cc(-n6cnnn6)ncc54)C[C@@H]3CN2)ccc(F)c1C#N (stereo partly shown) [Example 106] ; measured IC50: 120

Entry N#Cc1c(F)ccc([C@@H]2CN3CCN(C(=O)C4CCc5nc(-n6cnnn6)ccc54)C[C@@H]3CO2)c1Cl (stereo partly shown) [Example 65] , IC50 reported as 140

Noted for Cc1c([C@H]2CN3CCN(C(=O)C4CCc5cc(-n6cnnn6)ncc54)C[C@@H]3CO2)ccc(F)c1C#N (stereo partly shown) [Example 40] : its IC50 reads 120

Lab note: N#Cc1cc([C@@H]2CN3CCN(C(=O)C4CCc5nc(-n6cnnn6)ncc54)C[C@H]3CO2)ccc1F (stereo partly shown) gave IC50 of 190

The compound listed as Cc1c([C@@H]2CN3CCN(C(=O)C4CCc5nc(-n6cnnn6)ncc54)C[C@@H]3CO2)ccc(F)c1C#N (single isomer, unassigned) [Example 2D] shows IC50 equal to 100

Value of IC50 reported for the compound N#Cc1c(F)ccc([C@@H]2CN3CCN(C(=O)C4CCc5nc(-n6cnnn6)ccc54)C[C@H]3CO2)c1Cl (stereo partly shown) [Example 26] is 110

Entry Cc1c([C@H]2CN3CCN(C(=O)C4CCc5nc(-n6cnnn6)ncc54)C[C@H]3CO2)ccc2c1COC2=O (stereo partly shown) — recorded IC50 = 530

response.value for Cc1c([C@H]2CN3CCN(C(=O)C4CCCc5nc(-n6cnnn6)ccc54)C[C@H]3CO2)ccc(F)c1C#N (stereo partly shown) [Example 9] (field: IC50) = 190

====

- target desc: Kir1.1 (ROMK1) (Homo sapiens (Human))
- assay remarks: Electrophysiology Assay (whole cell voltage clamp, IonWorks Quattro)
- test settings: Chinese hamster ovary cells stably expressing Kir1.1; block during voltage step to 0 mV
Assignment: determine reported pIC50 for the given compounds.
Remember, pIC50 is on a log scale: it is -log10 of the molar concentration.

What the record says about Cc1c([C@H]2CN3CCN(C(=O)C4CCCc5nc(-n6cnnn6)ccc54)C[C@@H]3CO2)ccc(F)c1C#N (some centres unmarked) : pIC50 is 6.59

According to the records, this compound N#Cc1c(F)ccc([C@@H]2CN3CCN(C(=O)C4CCc5cc(-n6cnnn6)ncc54)C[C@H]3CO2)c1F (some centres unmarked) displays pIC50 of 7.40

Entry Cc1c([C@@H]2CN3CCN(C(=O)C4CCc5nc(-n6cnnn6)ccc54)C[C@H]3CO2)ccc(F)c1C#N (some centres unmarked) [Example 6] ; pIC50 = 7.00

For record Cc1c([C@H]2CN3CCN(C(=O)C4CCc5cc(-n6cnnn6)ncc54)C[C@H]3CN2)ccc(F)c1C#N (some centres unmarked) the listed pIC50 is 7.05

Value of measured pIC50 for the entry N#Cc1c(F)ccc([C@@H]2CN3CCN(C(=O)C4CCc5nc(-n6cnnn6)ccc54)C[C@H]3CO2)c1Cl (some centres unmarked) [Example 27] : 6.92

get_value(item= Cc1c([C@@H]2CN3CCN(C(=O)C4CCc5cc(-n6cnnn6)cnc54)C[C@H]3CN2)ccc(F)c1C#N (some centres unmarked) [Example 99] , readout=pIC50) returns 6.46

Just so you know, measured pIC50 for Cc1c([C@H]2CN3CCN(C(=O)C4Cc5cnc(-n6cnnn6)nc5C4)C[C@H]3CO2)ccc(F)c1C#N (some centres unmarked) came out at 6.89

Lab book: pIC50 of Cc1c([C@@H]2CN3CCN(C(=O)C4CCc5cc(-n6cnnn6)ncc54)C[C@@H]3CO2)ccc(F)c1C#N (some centres unmarked) [Example 43] noted as 6.89

Lookup result for Cc1c([C@H]2CN3CCN(C(=O)C4CCc5cc(-n6cnnn6)ncc54)C[C@@H]3CN2)ccc(F)c1C#N (some centres unmarked) [Example 103] ; measured pIC50: 6.96

get_value(item= Cc1c([C@H]2CN3CCN(C(=O)C4CCc5cc(-n6cnnn6)ncc54)C[C@@H]3CN2)ccc(F)c1C#N (some centres unmarked) [Example 104] , readout=pIC50) returns 6.92

Record N#Cc1cc([C@@H]2CN3CCN(C(=O)C4CCc5cc(-n6cnnn6)ncc54)C[C@H]3CO2)c(F)cc1F (some centres unmarked) , field pIC50: 6.70

====

Field: IC50. Provide a value for each of the compounds that follow.
- target desc: hROMK (hKir1.1) (Homo sapiens (Human))
- Sequence (P48048 whole entry): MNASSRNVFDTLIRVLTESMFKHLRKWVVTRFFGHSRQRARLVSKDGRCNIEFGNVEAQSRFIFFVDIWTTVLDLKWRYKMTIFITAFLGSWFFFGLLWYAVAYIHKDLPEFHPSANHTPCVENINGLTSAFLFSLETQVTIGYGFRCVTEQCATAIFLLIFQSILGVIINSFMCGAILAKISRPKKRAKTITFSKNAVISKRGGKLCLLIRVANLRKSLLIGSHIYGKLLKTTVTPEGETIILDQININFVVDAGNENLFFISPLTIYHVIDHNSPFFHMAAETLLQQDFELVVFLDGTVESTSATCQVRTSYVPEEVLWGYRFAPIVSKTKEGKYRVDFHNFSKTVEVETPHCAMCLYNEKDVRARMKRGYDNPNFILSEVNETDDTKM
- assay remarks: Thallium Flux Assay (ROMK channel functional thallium flux, FLIPR-Tetra)
- Type: cell-based
- test settings: HEK293 cells stably expressing hROMK (hKir1.1)
Number only, in nM; omit the unit.

Record Cc1c([C@@H]2CN3CCN(C(=O)C4CCc5cc(-n6cnnn6)ncc54)C[C@@H]3CN2)ccc(F)c1C#N (some centres unmarked) [Example 105] , field IC50: 140

// field: IC50; key: Cc1c([C@H]2CN3CCN(C(=O)C4Cc5cnc(-n6cnnn6)nc5C4)C[C@H]3CO2)ccc(F)c1C#N (some centres unmarked) ; value = 460

// IC50 lookup, compound = Cc1c([C@H]2CN3CCN(C(=O)[C@@H]4CCc5nc(-n6cnnn6)ncc54)C[C@@H]3CO2)ccc(F)c1C#N , result: 350

For reference, reported IC50 for Cc1c(C2CN3CCN(C(=O)[C@H]4CCc5nc(-n6cnnn6)ncc54)C[C@@H]3CO2)ccc(F)c1C#N (stereo in doubt) stands at 220

So for Cc1c([C@@H]2CN3CCN(C(=O)C4CCCc5nc(-n6cnnn6)ccc54)C[C@@H]3CO2)ccc(F)c1C#N (some centres unmarked) , the logged IC50 turned out to be 450

====

- target desc: UniProt P48048
- assay remarks: Electrophysiology Assay (whole cell voltage clamp, IonWorks Quattro)
- test settings: Chinese hamster ovary cells stably expressing Kir1.1; block during voltage step to 0 mV
Could you please mark Yes for values of IC50 below 100 nM and No for values at or above it?

Strictly below 100 nM: is that where IC50 of N#Cc1c(F)ccc([C@H]2CN3CCN(C(=O)C4CCc5nc(-n6cnnn6)ccc54)C[C@H]3CO2)c1Cl (stereo partly shown) [Example 28] sits?
No

Please indicate whether the reported IC50 of Cc1c([C@@H]2CN3CCN(C(=O)C4Cc5cnc(-n6cnnn6)nc5C4)C[C@@H]3CO2)ccc(F)c1C#N (stereo partly shown) [Example 75] is strictly below 100 nM.
No

Threshold test, IC50 < 100 nM: N#Cc1c(F)ccc([C@@H]2CN3CCN(C(=O)C4CCc5nc(-n6cnnn6)ccc54)C[C@@H]3CO2)c1F (stereo partly shown) [Example 20]
Yes

Strictly below 100 nM: is that where IC50 of Cc1c([C@@H]2CN3CCN(C(=O)C4CCc5cc(-n6cnnn6)cnc54)C[C@H]3CO2)ccc(F)c1C#N (stereo partly shown) [Example 37] sits?
No

Please let me know if Cc1c([C@H]2CN3CCN(C(=O)C4CCc5cc(-n6cnnn6)ncc54)C[C@H]3CO2)ccc(F)c1C#N (single isomer, unassigned) [Example 35] shows IC50 below 100 nM.
No

Please determine if Cc1c([C@H]2CN3CCN(C(=O)C4CCc5cc(-n6cnnn6)ncc54)C[C@H]3CO2)ccc(C#N)c1F (stereo partly shown) [Example 93] is below 100 nM in terms of IC50.
No

Consider the molecule Cc1c([C@@H]2CN3CCN(C(=O)C4CCc5cc(-n6cnnn6)ncc54)C[C@H]3CO2)ccc(F)c1C#N (stereo partly shown) [Example 44] . Is its IC50 strictly less than 100 nM?
No

Does this molecule meet the criterion IC50 < 100 nM? Cc1c([C@@H]2CN3CCN(C(=O)C4CCc5cc(-n6cnnn6)ncc54)C[C@@H]3CN2)ccc(F)c1C#N (stereo partly shown) [Example 105]
Yes

Is IC50 of Cc1c([C@H]2CN3CCN(C(=O)C4CCc5cc(-n6cnnn6)ncc54)C[C@H]3CO2)ccc(F)c1C#N (stereo partly shown) [Example 36] strictly below 100 nM?
No

Find out if reported IC50 for N#Cc1c(F)ccc([C@@H]2CN3CCN(C(=O)C4CCc5nc(-n6cnnn6)ncc54)C[C@@H]3CO2)c1Cl (stereo partly shown) [Example 82] is less than 100 nM
Yes
